Hey, just so you know, these numbers are from paper PMC8125528.

Tested on: T47-D cells
Experiment: MTT antiproliferative assay, T47-D
Type: cell-based
Conditions: Homo sapiens, T47D; breast T47-D cells, 72 h, MTT assay, 0.1-100 µM; read-out: Estimated IC50, T47-D
Experimental: Each experiment was performed in quadruplicate and independently repeated.
Reported Metric: IC50
Your reply should be a number followed by the unit it is expressed in.

Prompt: What value of measured IC50 is listed for C[C@]12CC[C@@H]3c4ccc(O)cc4CC[C@H]3[C@@H]1CCC2=NO ?
Response: 29.3 µM

Prompt: Okay, and O=c1[nH]cc(F)c(=O)[nH]1 [Compound 5-FU, 5-fluorouracil, reference compound] ?
Response: 0.54 µM

Prompt: Okay, and C[C@]12CC=C3c4ccc(O)cc4CCC3C1CCC2=NO (stereo partly drawn) ?
Response: 43.5 µM
